# half-life at 0.5 μM annotations
assay info: Human liver microsomal stability assay (Test 1)
Format: in vitro ADME
condition context: half-life in human liver microsomes, 0.5 μM test compound, 37° C., up to 45 min, NADPH-generating system, pH 7.4; read-out: Test 1 T1/2

1. CCCCCC(O)CCC1C(O)CC2Cc3c(cccc3OCC(=O)OCCC(=O)O)CC21 (centres unmarked) [II-4]; 15 to 30 min
2. CCCCC[C@H](O)CC[C@@H]1[C@H]2Cc3cccc(OCC(=O)O[C@H](C)C(=O)O)c3C[C@H]2C[C@H]1O [II-2]; 31 to 60 min
3. CCCCC[C@H](O)CC[C@@H]1[C@H]2Cc3cccc(OCC(=O)O)c3C[C@H]2C[C@H]1OC(=O)CC [Compound Ia-1]; < 15 min
4. CCCCC[C@H](O)CC[C@@H]1[C@H]2Cc3cccc(OCC(=O)OCC(=O)O)c3C[C@H]2C[C@H]1O [II-1]; 31 to 60 min
5. CCCCC[C@@H](CC[C@@H]1[C@H]2Cc3cccc(OCC(=O)O)c3C[C@H]2C[C@H]1O)OC(=O)COC [Compound Ib-8]; < 15 min

Given the compound CCCCC[C@H](O)CC[C@@H]1[C@H]2Cc3cccc(OCC(=O)O)c3C[C@H]2C[C@H]1OC(=O)CCCC [Ia-3] , what is its reported half-life at 0.5 μM?
< 15 min

Given the compound CCCCC[C@H](O)CC[C@@H]1[C@H]2Cc3cccc(OCC(=O)O)c3C[C@H]2C[C@H]1OC(=O)OC [Compound Ia-10] , what is its reported half-life at 0.5 μM?
< 15 min

Given the compound CCCCC[C@H](O)CC[C@@H]1[C@H]2Cc3cccc(OCC(=O)O)c3C[C@H]2C[C@H]1OC(=O)COCC [Ia-9] , what is its reported half-life at 0.5 μM?
< 15 min
